- Test system: MCF7
- assay.method.text: Antiproliferative activity against human MCF7 cells assessed as growth inhibition after 72 hrs by MTT assay
- Type: functional, cell-based
- measurement.conditions: Homo sapiens, MCF7, 72 h; read-out: IC50
pIC50: −log10 of the molar value.
readout.kind: pIC50

CC(C)c1ccc(Nc2ccc(C(=O)C(Cl)Cl)cc2[N+](=O)[O-])cc1 ... 5.92
CC(C)(O)c1ccc(Nc2ccc(C(=O)C(Cl)Cl)cc2[N+](=O)[O-])cc1 ... 5.53
O=C([O-])C(Cl)Cl.[Na+] [SODIUM DICHLOROACETATE] ... 1.87
O=C(c1ccccc1)C(Cl)Cl ... 4.67

A. CC(C)(C)c1ccc(Nc2ccc(C(=O)C(Cl)Cl)cc2[N+](=O)[O-])cc1
B. CC(C)Oc1ccc(C(=O)C(Cl)Cl)cc1[N+](=O)[O-]
Qu. Between these two entries, A and B , state which has the higher pIC50. Please reply using the label of the selected record.
Ans. A

---

- Test system: A549
- assay.method.text: Antiproliferative activity against human A549 cells assessed as growth inhibition at 10 uM after 72 hrs by MTT assay relative to control
- Type: functional
- measurement.conditions: read-out: GI
readout.kind: inhibition of growth at 10 µM (%)
Field: numeric (%). Do not append units.

COc1cccc2c1C(=O)c1c(O)c3c(c(O)c1C2=O)C[C@@](O)(C(=O)CO)C[C@@H]3O[C@H]1C[C@H](N)[C@H](O)[C@H](C)O1 [DOXORUBICIN] ... 98.5
CC(C)(O)c1ccc(Nc2ccc(C(=O)C(Cl)Cl)cc2[N+](=O)[O-])cc1 ... 96.3
O=C(c1ccc(-n2ccnc2)c([N+](=O)[O-])c1)C(Cl)Cl ... 96.6

Qu. Report measured inhibition of growth at 10 µM; entry is "O=C(c1ccc(N2CCCCC2)c([N+](=O)[O-])c1)C(Cl)Cl"
Ans. 97.1

---

- Organism: Homo sapiens
- assay.method.text: Inhibition of PDK (unknown origin) using RYHGHSMSDP as substrate at 1 uM after 30 mins by Kinase-Glo luminescent assay
readout.kind: inhibition (%)

Some entries whose results are on file:
O=C(c1ccc(Nc2ccccc2)c([N+](=O)[O-])c1)C(Cl)Cl ... 60.7
CN(C)C(=O)c1ccc(S(=O)(=O)c2ccc(NC(=O)[C@@](C)(O)C(F)(F)F)c(Cl)c2)cc1 ... 98.7
O=C(c1ccc(-n2cncn2)c([N+](=O)[O-])c1)C(Cl)Cl ... 17.4

a. CC(C)c1ccc(Nc2ccc(C(=O)C(Cl)Cl)cc2[N+](=O)[O-])cc1
b. O=C(c1ccc(C2CC2)c([N+](=O)[O-])c1)C(Cl)Cl
Qu. Lab note: check whether a or b has the lower measured inhibition. Please reply using the label of the selected record.
Ans. b

---

- Species: Homo sapiens
- assay.method.text: Inhibition of PDK (unknown origin) using RYHGHSMSDP as substrate at 1 uM after 30 mins by Kinase-Glo luminescent assay
readout.kind: inhibition (%)

Some entries whose results are on file:
O=C(c1ccc(-c2ccc(OC(F)(F)F)cc2)c([N+](=O)[O-])c1)C(Cl)Cl ... 21.4
CN(C)c1ccc(Nc2ccc(C(=O)C(Cl)Cl)cc2[N+](=O)[O-])cc1 ... 88.2
CC(C)c1ccc(Sc2ccc(C(=O)C(Cl)Cl)cc2[N+](=O)[O-])cc1 ... 19.5
COc1ccc(Nc2ccc(C(=O)C(Cl)Cl)cc2[N+](=O)[O-])cc1OC ... 66.4
O=C(c1ccc(N2CCNCC2)c([N+](=O)[O-])c1)C(Cl)Cl ... 48.6

I. O=C(c1ccc(-c2ccccc2)c([N+](=O)[O-])c1)C(Cl)Cl
II. O=C(c1ccc(-n2ccnc2[N+](=O)[O-])c([N+](=O)[O-])c1)C(Cl)Cl
III. CC(C)Oc1ccc(C(=O)C(Cl)Cl)cc1[N+](=O)[O-]
IV. CC(C)(O)c1ccc(Nc2ccc(C(=O)C(Cl)Cl)cc2[N+](=O)[O-])cc1
Qu. Ordering: ascending inhibition. Sort and list the labels as requested.
Ans. II, I, IV, III
(II: 8.1%, I: 25.6%, IV: 48.8%, III: 72.4%)

---

Recorded pIC50, one value per entry.
- Test system: L02
- assay.method.text: Cytotoxicity against human L02 cells assessed as reduction in cell viability after 72 hrs by MTT assay
- Format: cell-based
- measurement.conditions: Homo sapiens, L02, 72 h; read-out: IC50
In simple prose, pIC50 is minus the logarithm base ten of a concentration in moles per litre.

O=C(c1ccccc1)C(Cl)Cl ... 4.71
O=C([O-])C(Cl)Cl.[Na+] [SODIUM DICHLOROACETATE] ... 1.66
CC(C)Oc1ccc(C(=O)C(Cl)Cl)cc1[N+](=O)[O-] ... 4.77
CC(C)(CO)c1ccc(Nc2ccc(C(=O)C(Cl)Cl)cc2[N+](=O)[O-])cc1 ... 4.84
CC(C)c1ccc(Nc2ccc(C(=O)C(Cl)Cl)cc2[N+](=O)[O-])cc1 ... 5.82
CC(C)(O)c1ccc(Nc2ccc(C(=O)C(Cl)Cl)cc2[N+](=O)[O-])cc1 ... 5.11

Now take the following compound into account.
Qu. Report measured pIC50; entry is "CC(C)(C)c1ccc(Nc2ccc(C(=O)C(Cl)Cl)cc2[N+](=O)[O-])cc1"
Ans. 5.23

---

- Tested on: A-375
- assay.method.text: Antiproliferative activity against human A375 cells assessed as growth inhibition after 72 hrs by MTT assay
- Format: functional, cell-based
- measurement.conditions: Homo sapiens, A-375, 72 h; read-out: IC50
pIC50: −log10 of the molar value.
readout.kind: pIC50

Some entries whose results are on file:
CC(C)c1ccc(Nc2ccc(C(=O)C(Cl)Cl)cc2[N+](=O)[O-])cc1 ... 6.05
O=C(c1ccccc1)C(Cl)Cl ... 4.77

I. CC(C)Oc1ccc(C(=O)C(Cl)Cl)cc1[N+](=O)[O-]
II. CC(C)(CO)c1ccc(Nc2ccc(C(=O)C(Cl)Cl)cc2[N+](=O)[O-])cc1
III. CC(C)(O)c1ccc(Nc2ccc(C(=O)C(Cl)Cl)cc2[N+](=O)[O-])cc1
Qu. Ordering: ascending pIC50. Sort and list the labels as requested.
Ans. I, III, II

---

- Organism: Homo sapiens
- assay.method.text: Inhibition of PDK (unknown origin) using RYHGHSMSDP as substrate at 1 uM after 30 mins by Kinase-Glo luminescent assay
readout.kind: inhibition (%)

Some entries whose results are on file:
CC(C)c1ccc(Oc2ccc(C(=O)C(Cl)Cl)cc2[N+](=O)[O-])cc1 ... 39.4
CC(C)(C)c1ccc(Nc2ccc(C(=O)C(Cl)Cl)cc2[N+](=O)[O-])cc1 ... 65.8

A. CCOc1ccc(Nc2ccc(C(=O)C(Cl)Cl)cc2[N+](=O)[O-])cc1
B. O=C(c1ccc(N2CCCCC2)c([N+](=O)[O-])c1)C(Cl)Cl
C. O=C(c1ccc(-c2ccsc2)c([N+](=O)[O-])c1)C(Cl)Cl
Qu. Ordering: ascending inhibition. Sort and list the labels as requested.
Ans. C, B, A
